# Read-out: Interferon-gamma inducible Protein 10 (IP10), CXCL10 (gene 3627)
# assay.summary: BSK_hDFCGF_IP10: BioMAP Diversity Plus: hDFCGF Assay for Interferon-gamma inducible Protein 10 (IP10) Biomarker Activity (AID 2283053)
# test.conditions: primary human foreskin fibroblasts; actives raise or lower the signal
The source made the active and inactive calls. How the source made its calls: active means hit-call score of the fitted dose curve at least 0.9, where 1 is the maximum; inactive means score below 0.9.
Select the matching outcome among active, inactive

Each molecule tested received a call. Report the one for CCCCOCCO . inactive

Each molecule tested received a call. Report the one for FC(F)(I)C(F)(F)C(F)(F)C(F)(F)C(F)(F)C(F)(F)I . active

----------
# assay.summary: APR_HepG2_StressKinase_72hr: Apredica 72-hour HepG2 Assay for Stress Kinase (AID 2282921)
# test.conditions: HepG2 stress kinase (phospho-c-Jun) imaging, actives raise or lower the signal
Active and inactive are the calls of the source. Rule for the calls: active = hit-call score of the fitted dose curve at least 0.9, where 1 is the maximum; inactive = score below 0.9.
Select the matching outcome among yes (1) = active, no (0) = inactive

Some solved cases for reference:
{"compound": "CC#C[C@]1(O)CC[C@H]2[C@@H]3CCC4=CC(=O)CCC4=C3[C@@H](c3ccc(N(C)C)cc3)C[C@@]21C", "category.label": "no (0)"}
{"compound": "Oc1cccc(O)c1", "category.label": "no (0)"}
{"compound": "O=C(/C=C/c1ccc(O)cc1)CC(=O)/C=C/c1ccc(O)cc1", "category.label": "yes (1)"}
{"compound": "ClC1=C(Cl)C(Cl)(Cl)C(Cl)=C1Cl", "category.label": "no (0)"}
{"compound": "CCCCCCCCCCCCCCCS(=O)(=O)Oc1ccccc1", "category.label": "no (0)"}
{"compound": "CCCCCCCC(=O)O", "category.label": "no (0)"}

Each compound tested received a call. Report the one for COCC(C)OCC(C)O (centres undefined) . no (0)

Each compound tested received a call. Report the one for CN(C)C=O . no (0)

Each compound tested received a call. Report the one for NC(=O)N(O)[C@@H]1C=C[C@H](Oc2cccc(Oc3ccc(F)cc3)c2)C1 . no (0)

Each compound tested received a call. Report the one for O=[N+]([O-])c1ccc(O)cc1 . no (0)
